target: Tyrosine-protein kinase ABL2 (Homo sapiens) (UniProt P42684); test: Competitive binding affinity to ABL2 (unknown origin) at 10 uM in presence of ATP relative to control
Sequence (P42684 whole entry): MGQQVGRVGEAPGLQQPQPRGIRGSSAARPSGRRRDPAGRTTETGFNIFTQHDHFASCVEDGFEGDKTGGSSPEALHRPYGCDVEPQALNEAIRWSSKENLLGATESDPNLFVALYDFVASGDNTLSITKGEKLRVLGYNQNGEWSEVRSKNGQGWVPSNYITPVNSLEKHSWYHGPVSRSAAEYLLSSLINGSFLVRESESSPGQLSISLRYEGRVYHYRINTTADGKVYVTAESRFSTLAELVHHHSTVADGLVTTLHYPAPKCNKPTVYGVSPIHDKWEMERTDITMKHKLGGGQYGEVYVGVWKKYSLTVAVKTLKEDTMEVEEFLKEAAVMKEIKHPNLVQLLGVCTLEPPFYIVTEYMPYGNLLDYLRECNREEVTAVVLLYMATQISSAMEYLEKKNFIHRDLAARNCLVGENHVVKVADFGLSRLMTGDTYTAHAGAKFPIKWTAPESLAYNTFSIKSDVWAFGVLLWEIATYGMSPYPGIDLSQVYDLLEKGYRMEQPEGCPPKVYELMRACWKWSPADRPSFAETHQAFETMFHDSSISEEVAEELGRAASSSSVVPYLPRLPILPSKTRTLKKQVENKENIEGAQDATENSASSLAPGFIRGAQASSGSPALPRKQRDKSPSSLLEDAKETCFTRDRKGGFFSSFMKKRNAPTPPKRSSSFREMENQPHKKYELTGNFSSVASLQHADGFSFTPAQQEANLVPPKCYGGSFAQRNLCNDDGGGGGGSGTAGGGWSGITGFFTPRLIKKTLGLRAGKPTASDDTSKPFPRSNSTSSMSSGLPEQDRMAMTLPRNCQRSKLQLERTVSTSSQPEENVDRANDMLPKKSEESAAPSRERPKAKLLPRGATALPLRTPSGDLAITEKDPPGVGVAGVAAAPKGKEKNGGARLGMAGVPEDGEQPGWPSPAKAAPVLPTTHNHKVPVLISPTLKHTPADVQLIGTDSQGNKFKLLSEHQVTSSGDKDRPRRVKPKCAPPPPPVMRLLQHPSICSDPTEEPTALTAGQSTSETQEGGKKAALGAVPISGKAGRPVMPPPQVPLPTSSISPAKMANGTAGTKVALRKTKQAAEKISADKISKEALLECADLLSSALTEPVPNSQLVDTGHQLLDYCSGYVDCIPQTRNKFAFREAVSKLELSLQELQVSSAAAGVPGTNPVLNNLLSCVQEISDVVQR
Known inhibition of a selection of compounds

| chemicalSmiles | inhibition |
| --- | --- |
| O[C@H]1CC[C@H](Nc2nccc(-n3nnc4ccccc43)n2)CC1 | < 50% |
| O[C@H]1CC[C@H](Nc2nccc(-n3ncc4ccccc43)n2)CC1 | < 50% |
| O=C([C@H]1CC[C@H](Nc2nccc(-n3nnc4ccccc43)n2)CC1)N1CCOCC1 | < 50% |
| O[C@H]1CC[C@H](Nc2nccc(-n3ccc4ccccc43)n2)CC1 | < 50% |
| O[C@H]1CC[C@H](Nc2nccc(-c3n[nH]c4ccccc34)n2)CC1 | < 50% |
| N[C@H]1CC[C@H](Nc2nccc(-n3nnc4ccccc43)n2)CC1 | 89% |
